- Species on record: Mus musculus
- Method notes: Percent decrease in blood glucose relative to vehicle-treated group with use of four to six mice
- Assay type: functional
// reported Decrease per item
Reply with just the number (in %).

// known answers, use as guide
CC1(COc2ccc(CC3SC(=O)NC3=O)cc2)CCCCC1 (stereo not given) :: -35
CCOC(=O)Oc1cc2ccc(SC3SC(=O)NC3=O)cc2cc1OC(=O)OCC (stereo not given) :: -22
COc1ccc2c(S(=O)(=O)C3SC(=O)NC3=O)cccc2c1C(F)(F)F (stereo not given) :: -40
O=C1NC(=O)C(S(=O)(=O)c2cccc3ccccc23)S1 (stereo not given) :: -34

**Q:** Given O=C1NC(=O)C(Sc2ccc3cc(O)ccc3c2)S1 (stereo not given) , state its recorded Decrease.
**A:** -19

**Q:** Given O=C1NC(=O)C(S(=O)(=O)c2cccc3c(Br)cccc23)S1 (stereo not given) , state its recorded Decrease.
**A:** -29

**Q:** Given COc1ccc2cc(SC3SC(=O)NC3=O)ccc2c1C(F)(F)F (stereo not given) , state its recorded Decrease.
**A:** -32

**Q:** Given O=C1NC(=O)C(Sc2ccc3ccccc3c2)S1 (stereo not given) , state its recorded Decrease.
**A:** -29

**Q:** Given O=C1NC(=O)C(S(=O)(=O)c2ccc3ccccc3c2)S1 (stereo not given) , state its recorded Decrease.
**A:** -63

**Q:** Given O=C1NC(=O)C(Cc2ccc3ccccc3c2)S1 (stereo not given) , state its recorded Decrease.
**A:** -38

----------
// reported pKa per item
- Method notes: Ionization constant for the compound
- Type: physicochemical
// no unit, no text: just the number

// known answers, use as guide
O=C1NC(=O)C(Cc2ccc3ccccc3c2)S1 (centres undefined) :: 6.83
O=C1NC(=O)C(Sc2ccc3ccccc3c2)S1 (centres undefined) :: 5.58
O=C1NC(=O)C(S(=O)(=O)c2ccc3ccccc3c2)S1 (centres undefined) :: 3.95

**Q:** Given CC1(COc2ccc(CC3SC(=O)NC3=O)cc2)CCCCC1 (centres undefined) [CIGLITAZONE] , state its recorded pKa.
**A:** 6.82
